Reported Musca domestica NAIDM (w/PB) LD50 by item:
- Tested on: Musca domestica (NAIDM strain)
- Protocol Text: Insect toxicity, Musca domestica NAIDM strain
- Format: in vivo
- Setup Conditions: with PB

[
  {
    "Molecule": "CCOc1ccc(C(c2ccc(OCC)cc2)C(C)Cl)cc1 (stereo not drawn)",
    "Musca domestica NAIDM (w/PB) LD50 [µg/g]": 2
  },
  {
    "Molecule": "CCOc1ccc(C(c2ccc(OC)cc2)C(C)Cl)cc1 (stereo not drawn)",
    "Musca domestica NAIDM (w/PB) LD50 [µg/g]": 4.7
  },
  {
    "Molecule": "CCOc1ccc(C(c2ccc(OCC)cc2)C(C)(C)Cl)cc1",
    "Musca domestica NAIDM (w/PB) LD50 [µg/g]": 12
  }
]

* * *

- Tested on: Musca domestica (NAIDM strain)
- Protocol Text: Insect toxicity, Musca domestica NAIDM strain
- Type: in vivo
- Setup Conditions: with PB

[
  {
    "Compound": "CCOc1ccc(C(c2ccc(C)cc2)C(C)C)cc1 (stereo not drawn)",
    "Musca domestica NAIDM (w/PB) LD50 (µg/g)": 18
  },
  {
    "Compound": "COc1ccc(C(c2ccc(OC)cc2)C(C)(C)Cl)cc1",
    "Musca domestica NAIDM (w/PB) LD50 (µg/g)": 12
  },
  {
    "Compound": "Cc1ccc(C(c2ccc(C)cc2)C(C)(Cl)Cl)cc1",
    "Musca domestica NAIDM (w/PB) LD50 (µg/g)": 18
  },
  {
    "Compound": "CCOc1ccc(C(c2ccc(OCC)cc2)C(C)C)cc1",
    "Musca domestica NAIDM (w/PB) LD50 (µg/g)": 3.5
  },
  {
    "Compound": "CCOc1ccc(C(c2ccc(OC)cc2)C(C)C)cc1 (stereo not drawn)",
    "Musca domestica NAIDM (w/PB) LD50 (µg/g)": 12
  },
  {
    "Compound": "CCCOc1ccc(C(c2ccc(OCC)cc2)C(C)C)cc1 (stereo not drawn)",
    "Musca domestica NAIDM (w/PB) LD50 (µg/g)": 6.5
  }
]

* * *

- Tested on: Musca domestica Rsp strain
- Protocol Text: Insect toxicity, Musca domestica Rsp strain, DDT-resistant
- Format: in vivo
- Setup Conditions: with PB
Readout Label: Musca domestica Rsp strain w/PB LD50 (µg/g)

[
  {
    "Compound": "CCOc1ccc(C(c2ccc(OC)cc2)C(C)Cl)cc1 (stereo not shown)",
    "Readout Label": "Musca domestica Rsp strain w/PB LD50",
    "Comparison Sign": "=",
    "Value Observed": 4.8
  },
  {
    "Compound": "Cc1ccc(C(c2ccc(C)cc2)C(C)Cl)cc1 (stereo not shown)",
    "Readout Label": "Musca domestica Rsp strain w/PB LD50",
    "Comparison Sign": "=",
    "Value Observed": 140
  },
  {
    "Compound": "CCOc1ccc(C(c2ccc(OCC)cc2)C(C)(C)Cl)cc1",
    "Readout Label": "Musca domestica Rsp strain w/PB LD50",
    "Comparison Sign": "=",
    "Value Observed": 25.5
  },
  {
    "Compound": "CCCOc1ccc(C(c2ccc(C)cc2)C(C)C)cc1 (stereo not shown)",
    "Readout Label": "Musca domestica Rsp strain w/PB LD50",
    "Comparison Sign": "=",
    "Value Observed": 220
  },
  {
    "Compound": "COc1ccc(C(c2ccc(OC)cc2)C(C)(C)Cl)cc1",
    "Readout Label": "Musca domestica Rsp strain w/PB LD50",
    "Comparison Sign": "=",
    "Value Observed": 26
  },
  {
    "Compound": "Cc1ccc(C(c2ccc(C)cc2)C(C)(Cl)Cl)cc1",
    "Readout Label": "Musca domestica Rsp strain w/PB LD50",
    "Comparison Sign": "=",
    "Value Observed": 7.0
  },
  {
    "Compound": "CCCc1ccc(C(c2ccc(CCC)cc2)C(C)Cl)cc1 (stereo not shown)",
    "Readout Label": "Musca domestica Rsp strain w/PB LD50",
    "Comparison Sign": "=",
    "Value Observed": 90
  },
  {
    "Compound": "COc1ccc(C(c2ccc(OC)cc2)C(C)(Cl)Cl)cc1",
    "Readout Label": "Musca domestica Rsp strain w/PB LD50",
    "Comparison Sign": "=",
    "Value Observed": 9.5
  },
  {
    "Compound": "CCOc1ccc(C(c2ccc(C)cc2)C(C)C)cc1 (stereo not shown)",
    "Readout Label": "Musca domestica Rsp strain w/PB LD50",
    "Comparison Sign": "=",
    "Value Observed": 31
  },
  {
    "Compound": "CCCCOc1ccc(C(c2ccc(C)cc2)C(C)C)cc1 (stereo not shown)",
    "Readout Label": "Musca domestica Rsp strain w/PB LD50",
    "Comparison Sign": ">",
    "Value Observed": 500
  },
  {
    "Compound": "CCCOc1ccc(C(c2ccc(OCC)cc2)C(C)C)cc1 (stereo not shown)",
    "Readout Label": "Musca domestica Rsp strain w/PB LD50",
    "Comparison Sign": "=",
    "Value Observed": 22.5
  },
  {
    "Compound": "CCOc1ccc(C(c2ccc(OC)cc2)C(C)C)cc1 (stereo not shown)",
    "Readout Label": "Musca domestica Rsp strain w/PB LD50",
    "Comparison Sign": "=",
    "Value Observed": 17.5
  },
  {
    "Compound": "CCOc1ccc(C(c2ccc(OCC)cc2)C(C)Cl)cc1 (stereo not shown)",
    "Readout Label": "Musca domestica Rsp strain w/PB LD50",
    "Comparison Sign": "=",
    "Value Observed": 4.9
  }
]

These measurements were taken from patent US4118424A.
